test system: Plasmodium falciparum; experiment: GSK_TCMDC: Inhibition of Plasmodium falciparum 3D7 in whole red blood cells, using parasite LDH activity as an index of growth. Test compounds present at 2uM; assay type: functional
Inhibition for assorted compounds
endpointName: Inhibition (%)

compound: CCCNC(=O)c1cncc(-c2ccc(CNC(CC)c3ccccc3)cc2)c1.O=C(O)C(F)(F)F (stereo unspecified)
endpointName: Inhibition
assayValue: 92
//
compound: Oc1cc(Nc2ccnc3cc(-c4ccc(CN5CCCCC5)o4)c(Cl)cc23)c(Cl)cc1F
endpointName: Inhibition
assayValue: 100
//
compound: CCCS(=O)(=O)N1CCC(CO)(Cc2ccccc2C(F)(F)F)CC1
endpointName: Inhibition
assayValue: 97
//
compound: Cl.Cl.N=C(N)c1cccc(-c2cc(-c3cccc(C(=N)N)c3)on2)c1
endpointName: Inhibition
assayValue: 96
//
compound: CCOC(=O)c1ccc(Nc2cc(Nc3ccc(C(=O)OCC)cc3)nc(C)n2)cc1
endpointName: Inhibition
assayValue: 99
//
compound: CN1CCN(c2cccc(-c3nnc(-c4ccc(OCC(=O)NCc5cccc(C(F)(F)F)c5)c([N+](=O)[O-])c4)o3)c2)CC1
endpointName: Inhibition
assayValue: 90
//
compound: COc1ccc(-c2cccc(NC(=O)c3cccc(Cl)c3)c2)cc1CN1CCCN(C)CC1.O=C(O)C(F)(F)F
endpointName: Inhibition
assayValue: 100
//
compound: COc1ccc(CNCc2cccc(-c3csc(-c4nc5ccccc5[nH]4)c3)c2)cc1.O=C(O)C(F)(F)F
endpointName: Inhibition
assayValue: 100
//
compound: Cc1[nH]c(C)c(-c2ccc(OCc3ccccc3C(F)(F)F)nc2)c(=O)c1Br
endpointName: Inhibition
assayValue: 98
//
compound: COc1cccc(Nc2c(C(N)=O)cnc3ccc(-c4ccccc4)cc23)c1
endpointName: Inhibition
assayValue: 98
//
compound: COc1ccc2nc(C)cc(Nc3ccc(Oc4ccc(Br)c5ccccc45)c(Cl)c3)c2c1
endpointName: Inhibition
assayValue: 100
//
compound: O=C(Nc1ccc(Cl)c(Cl)c1)Nc1ccc(F)c([N+](=O)[O-])c1
endpointName: Inhibition
assayValue: 100
//
compound: CC(=O)Nc1nc(C(=O)Nc2cccc(-c3cccc(-c4nc5ccccc5[nH]4)c3)c2)cs1
endpointName: Inhibition
assayValue: 100
//
compound: CCOC(=O)C(CO)NC(=O)c1ccc([N+](=O)[O-])o1 (stereo unspecified)
endpointName: Inhibition
assayValue: 96
//
compound: CCOC(=O)c1cc(=O)c2ccc(OCC#N)cc2o1
endpointName: Inhibition
assayValue: 88
//
compound: CCCN(CCCN(CCCN(CCC)C(C)C)c1cc(C)nc(Nc2ccc(Cl)cc2)n1)C(C)C.O=C(O)C(=O)O
endpointName: Inhibition
assayValue: 100
//
compound: COc1ccc(Cl)cc1N1CCN(CCCNC(=O)c2ccc(-c3nc4cc(Cl)c(Cl)cc4[nH]3)c(C)c2)CC1
endpointName: Inhibition
assayValue: 100
//
compound: O=C(Nc1ccc2c(c1)CCN2C1CCN(Cc2cccc3cc[nH]c23)C1)c1ccco1 (stereo unspecified)
endpointName: Inhibition
assayValue: 88
//
compound: COc1ccc(NC(=O)C2c3ccccc3C(=O)N(C3CCCC3)C2c2cccs2)c(OC)c1 (stereo unspecified)
endpointName: Inhibition
assayValue: 84
//
compound: O=C(Nc1nc2cc(S(=O)(=O)NCCCN3CCOCC3)ccc2n1CCCn1ccnc1)c1ccc(Cl)cc1.O=C(O)C(F)(F)F
endpointName: Inhibition
assayValue: 95
//
compound: Cc1ccc(OCC2CCN(c3ncc(C(=O)NCCCN4CCCC4=O)cc3Cl)CC2)cc1
endpointName: Inhibition
assayValue: 94
//
compound: O=C(/C=C/c1ccc(Cl)c(Cl)c1)NCCCCCN1CCC(NC(=O)Nc2cc(F)ccc2F)CC1
endpointName: Inhibition
assayValue: 98
//
compound: CS(=O)(=O)n1c(CN2CCN(c3ncc(C(F)(F)F)cc3Cl)CC2)nc2ccccc21
endpointName: Inhibition
assayValue: 83
//
compound: Cc1cc(C)c(S(=O)(=O)N2CCCCC(c3cccc(C(F)(F)F)c3)=N2)c(C)c1
endpointName: Inhibition
assayValue: 94
//
compound: COc1ccc(C(=O)N[C@@H](CC(C)C)C(=O)N[C@H](/C=N/NC(=O)c2ccccc2)CCc2ccccc2)cc1OCCN1CCOCC1
endpointName: Inhibition
assayValue: 96
//
compound: Fc1ccc2[nH]c(-c3cccc(-c4cccc(CNCc5ccccc5)c4)c3)nc2c1.O=C(O)C(F)(F)F
endpointName: Inhibition
assayValue: 100

The reported numbers originate from ChEMBL document CHEMBL1157539.
